study_system: T1, MAGI2-2 (human, UniProt Q86UL8 426-510)
T1 construct: PDZ domain number 2 of human MAGI2; also called MAGI2 PDZ dom 2; source: E. coli, in crude cell lysate; not shown: His, N-terminal, kept
T1 sequence (Q86UL8 426-510): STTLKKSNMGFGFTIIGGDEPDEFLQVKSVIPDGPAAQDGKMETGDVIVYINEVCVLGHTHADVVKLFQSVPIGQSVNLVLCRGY
test_details: holdup assay; biotinylated PBM peptide saturating streptavidin resin (biotin resin as reference); tag-PDZ at 4 uM in crude E. coli lysate, 15 min, filtration, free tag-PDZ by capillary electrophoresis; singlicate; BI cut-off 0.20; BI converted into KD with the peptide concentration back-calculated from FP
experimental_setup: one partner purified
Where no end group is shown, it is not given here. The star is where a group is joined. Biotin = O=C1N[C@H]2[C@H](CS[C@H]2CCCCC(=O)*)N1; TTDS = NCCCOCCOCCOCCCNC(=O)CCC(=O)*
# pKd listing for each entry below
Lab note: report pKd as minus log10 of the concentration in molar units, number only.

// below: answered binders
binder	pKd
{Biotin-TTDS}-PFDEDQHTQITKV (peptide, UniProt P60484 391-403, looked up, also called 13-mer PTEN peptide; extended wild-type peptide; source: synthetic peptide, bought: JPT Innovative Peptide Solutions (70%-80% purity)) [PTEN_13]	3.83
{Biotin-TTDS}-DEDQHTQITK(Ac)V (peptide, UniProt P60484 393-403, looked up, also called acetylated version of PTEN_11; acetylated peptide; source: synthetic peptide (Chemical Peptide Synthesis Service of the IGBMC, Fmoc)) [PTEN_Ac]	4.25
{Biotin-TTDS}-DEDQHTQITKV (peptide, UniProt P60484 393-403, looked up, also called 11-mer wild-type PTEN PBM peptide; native PTEN_11 PBM; source: synthetic peptide (Chemical Peptide Synthesis Service of the IGBMC, Fmoc)) [PTEN_11]	3.82

Form field pKd, entry {Biotin-TTDS}-DEDQHTQITRV (peptide, UniProt P60484 393-403, looked up, also called K402R mutant; source: synthetic peptide (Chemical Peptide Synthesis Service of the IGBMC, Fmoc)) [PTEN_KR] : 4.54
